Tested on: BNL
Experiment Notes: Cytotoxicity against mouse BNL cells by MTT assay
Assay type: functional, cell-based
// IC50 lookup, one value per entry
State the answer as a number, implicitly in µM.

Before answering, review these 3 worked examples.
N#Cc1cccc(-c2cc(O)c3c(ccc4[nH]ccc43)n2)c1 :: 40
O=c1cc(-c2ccccc2)[nH]c2ccc3[nH]ccc3c12 :: 3
Oc1cc(-c2cccc(Br)c2)nc2ccc3[nH]ccc3c12 :: 4

So, COc1cccc(-c2cc(O)c3c(ccc4[nH]ccc43)n2)c1 ? Its IC50 was 4

Record summary for CC(=O)O[C@H]1C(=O)[C@@]2(C)[C@H]([C@H](OC(=O)c3ccccc3)[C@]3(O)C[C@H](OC(=O)[C@H](O)[C@@H](NC(=O)c4ccccc4)c4ccccc4)C(C)=C1C3(C)C)[C@]1(OC(C)=O)CO[C@@H]1C[C@@H]2O : reported IC50 = 0.2

Record Cc1cccc(-c2cc(O)c3c(ccc4[nH]ccc43)n2)c1 . Reported IC50: 6

Lab note: measured IC50 of Oc1cc(-c2cccs2)nc2ccc3[nH]ccc3c12 was 8
